SYSTEM: T1, GFP-9S library array, motif 4 ND N98W;D124P (synthetic construct, N98W;D124P)
T1 chain: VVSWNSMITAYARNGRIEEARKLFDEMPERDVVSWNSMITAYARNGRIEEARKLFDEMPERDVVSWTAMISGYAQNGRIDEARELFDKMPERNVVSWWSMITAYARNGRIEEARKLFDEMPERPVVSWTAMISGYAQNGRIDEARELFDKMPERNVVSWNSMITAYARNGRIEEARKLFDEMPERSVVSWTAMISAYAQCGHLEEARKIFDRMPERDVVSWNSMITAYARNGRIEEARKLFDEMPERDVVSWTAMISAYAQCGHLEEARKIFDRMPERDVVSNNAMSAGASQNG
TEST_SUMMARY: high-throughput RNA pulldown from lysate on Ni-NTA beads; HRP: 50 mM Tris pH 8, 150 mM NaCl, 1 mM beta-mercaptoethanol, 50 ug/ml BSA, 3 ug/ml yeast RNA, 0.5% heparin; ITC and FP: Tris pH 8, 200 mM KCl, 5% glycerol; MST: 50 mM Tris pH 8, 200 mM NaCl, 1 mM DTT, BSA, heparin, 0.05% Tween 20
CONDITION: tags: N-terminal His-eGFP; label: 5' Cy5
MEASUREMENT_NAME: pKd
# reply with the number alone; pKd is -log10 of concentration in mol/L

What does the record list as pKd for AUUACACGUGA (ssRNA) [Cy5-rpoA] ?
6.64

What does the record list as pKd for AUUAGACGUGA (ssRNA) [Cy5-rpoA-G] ?
6.67

Where do the numbers come from? From paper PMC8809517.
